# Assay target: purified mouse Magmas (Mus musculus, UniProt Q9CQV1)
# Sequence (Q9CQV1 1-125): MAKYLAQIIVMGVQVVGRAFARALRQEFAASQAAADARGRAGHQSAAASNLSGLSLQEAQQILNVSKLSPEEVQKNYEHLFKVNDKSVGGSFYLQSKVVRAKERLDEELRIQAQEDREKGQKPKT
Test readout: pKd
Please treat pKd as minus the base-10 logarithm of the molar concentration.

For record CCC1=C(C)/C(=C/c2ccc(C(=O)NC(=N)N)cc2)CCC1(C)C the listed pKd is 4.44

* * *

# Assay target: purified yeast Magmas (Saccharomyces cerevisiae, UniProt P42949)
# Sequence (P42949 whole entry): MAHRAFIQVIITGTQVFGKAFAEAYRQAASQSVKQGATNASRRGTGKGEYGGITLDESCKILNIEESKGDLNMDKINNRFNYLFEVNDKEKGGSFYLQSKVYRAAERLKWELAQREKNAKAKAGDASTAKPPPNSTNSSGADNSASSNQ
# Measurement protocol: Binding to Magmas by fluorescence emission spectrum (tryptophan)
# Setup conditions: yeast Magmas, FIG. 3A; read-out: calculated Kd
Test readout: pKd
Please treat pKd as minus the base-10 logarithm of the molar concentration.

Measured on purified yeast Magmas (Saccharomyces cerevisiae, UniProt P42949), CCC1=C(C)/C(=C/c2ccc(C(=O)NC(=N)N)cc2)CCC1(C)C [Compound 9] has a documented pKd of 4.48

Reference for the values: patent US8581005B2
